- testedOn: T1, monomeric cynomolgus monkey CSF1R ectodomain protein (cynomolgus monkey, UniProt P07333 20-517 (human entry))
- T1 construct: also called monomeric cyno CSF1R; Cyno CSF1R
- T1 chain: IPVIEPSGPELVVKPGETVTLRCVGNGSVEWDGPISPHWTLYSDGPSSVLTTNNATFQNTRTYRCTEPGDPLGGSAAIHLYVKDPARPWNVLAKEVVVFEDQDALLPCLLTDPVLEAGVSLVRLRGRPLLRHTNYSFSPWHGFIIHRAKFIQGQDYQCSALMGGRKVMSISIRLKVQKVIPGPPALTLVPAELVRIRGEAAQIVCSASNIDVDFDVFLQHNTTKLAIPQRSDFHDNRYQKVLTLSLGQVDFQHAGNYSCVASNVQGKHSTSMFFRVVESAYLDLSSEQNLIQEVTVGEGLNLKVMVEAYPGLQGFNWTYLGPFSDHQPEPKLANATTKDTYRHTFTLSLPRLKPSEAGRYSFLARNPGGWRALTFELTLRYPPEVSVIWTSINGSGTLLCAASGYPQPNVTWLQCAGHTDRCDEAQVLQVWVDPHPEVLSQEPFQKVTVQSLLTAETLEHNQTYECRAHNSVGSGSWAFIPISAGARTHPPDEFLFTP
- experimentSummary: SPR Biacore, IgG captured, monomeric CSF1R analyte
parameterMeasured: koff (s⁻¹)
Expressed in s⁻¹, but write only the number.

Prompt line: Can you share its koff? I mean this binder: MH24 (antibody, human IgG4, V domains shown, Deimmunized MH5 derivative, human IgG4(S228P)/Ckappa IgG) VH: QVQLVQSGAEVKKPGSSVKVSCKASGYTFSSHYMIWVRQAPGQGLEWMGDINPYNGGANYAQKFQGRVTITADESTSTAYMELSSLRSEDTAVYYCAREGPYFSNLYVMDYWGQGTLVTVSS VL: EIVLTQSPATLSLSPGERATLSCRASQSVSYEGENYLNWYQQKPGQAPRSLIYAASDRATGIPARFSGSGSGTDFTLTISSPEPEDFAVYYCQLSNEDLLTFGGGTKVEIK
Response line: 0.000833
